Source of measurements: the kinase profiling compilation of Christmann-Franck et al. (2016)

Molecular target: TEK (human) (UniProt Q02763)
Sequence (Q02763 whole entry, looked up): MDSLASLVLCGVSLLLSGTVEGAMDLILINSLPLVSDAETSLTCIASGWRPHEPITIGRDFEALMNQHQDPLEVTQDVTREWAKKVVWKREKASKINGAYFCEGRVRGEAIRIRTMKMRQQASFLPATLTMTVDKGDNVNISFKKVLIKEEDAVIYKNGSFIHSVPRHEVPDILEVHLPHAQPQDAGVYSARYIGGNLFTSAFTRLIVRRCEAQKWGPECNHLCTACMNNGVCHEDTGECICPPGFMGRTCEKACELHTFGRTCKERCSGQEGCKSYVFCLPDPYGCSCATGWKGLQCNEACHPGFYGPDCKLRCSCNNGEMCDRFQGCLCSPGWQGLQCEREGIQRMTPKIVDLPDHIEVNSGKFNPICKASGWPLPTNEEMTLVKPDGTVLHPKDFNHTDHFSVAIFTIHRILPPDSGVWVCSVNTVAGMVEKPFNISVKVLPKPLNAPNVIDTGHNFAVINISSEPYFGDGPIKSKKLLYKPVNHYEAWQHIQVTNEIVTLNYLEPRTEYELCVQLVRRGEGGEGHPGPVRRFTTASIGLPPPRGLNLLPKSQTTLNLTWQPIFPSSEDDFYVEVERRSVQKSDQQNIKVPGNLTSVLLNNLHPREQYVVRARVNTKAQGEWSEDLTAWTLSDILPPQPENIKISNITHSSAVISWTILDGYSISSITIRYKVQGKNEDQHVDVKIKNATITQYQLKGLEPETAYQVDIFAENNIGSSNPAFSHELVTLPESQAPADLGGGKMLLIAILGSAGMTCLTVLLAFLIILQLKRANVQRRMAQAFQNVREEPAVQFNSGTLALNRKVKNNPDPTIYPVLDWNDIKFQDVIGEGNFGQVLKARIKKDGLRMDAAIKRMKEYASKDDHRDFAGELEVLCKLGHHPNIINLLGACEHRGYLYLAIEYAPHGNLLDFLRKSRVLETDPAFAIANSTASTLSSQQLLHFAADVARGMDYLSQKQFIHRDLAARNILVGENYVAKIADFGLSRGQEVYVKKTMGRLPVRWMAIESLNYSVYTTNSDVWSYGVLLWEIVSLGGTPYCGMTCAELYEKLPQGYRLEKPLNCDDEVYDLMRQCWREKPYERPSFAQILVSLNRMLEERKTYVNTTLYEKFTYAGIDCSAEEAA
Test: KINOMEscan competition binding
Conditions: compound 10.0 µM
The reader will find reported kinase still bound, per cent of control values listed item by item below.
The figure you give is taken to be in %; do not add the unit.

Answered examples (5):
{"STRUCTURE": "C=CC(=O)Nc1cc(NC(=O)c2ccc(C)c(NC(=O)c3ccno3)c2)cc(C(F)(F)F)c1", "ENDPOINT": "kinase still bound, per cent of control", "UNIT_NAME": "%", "MEASURED_VALUE": 100}
{"STRUCTURE": "Cn1c(=O)n(-c2ccc(C(C)(C)C#N)cc2)c2c3cc(-c4cnc5ccccc5c4)ccc3ncc21", "ENDPOINT": "kinase still bound, per cent of control", "UNIT_NAME": "%", "MEASURED_VALUE": 100}
{"STRUCTURE": "Cc1cc([C@@H](C)Nc2ccccc2C(=O)O)c2nc(N3CCOCC3)cc(=O)n2c1", "ENDPOINT": "kinase still bound, per cent of control", "UNIT_NAME": "%", "MEASURED_VALUE": 100}
{"STRUCTURE": "C[C@@H](Oc1cc(-n2cnc3ccc(CN4CCN(C)CC4)cc32)sc1C(N)=O)c1ccccc1C(F)(F)F", "ENDPOINT": "kinase still bound, per cent of control", "UNIT_NAME": "%", "MEASURED_VALUE": 78}
{"STRUCTURE": "CCOc1cc2ncc(C#N)c(Nc3ccc(OCc4ccccn4)c(Cl)c3)c2cc1NC(=O)/C=C/CN(C)C", "ENDPOINT": "kinase still bound, per cent of control", "UNIT_NAME": "%", "MEASURED_VALUE": 56}

Please look up its kinase still bound, per cent of control: Cc1ccc2nc(NCCN)c3ncc(C)n3c2c1
100

###

Measured kinase still bound, per cent of control, listed per entry for reference.
System: PIK3CA (human), P42336 [C420R]
Sequence (P42336 whole entry C420R, looked up): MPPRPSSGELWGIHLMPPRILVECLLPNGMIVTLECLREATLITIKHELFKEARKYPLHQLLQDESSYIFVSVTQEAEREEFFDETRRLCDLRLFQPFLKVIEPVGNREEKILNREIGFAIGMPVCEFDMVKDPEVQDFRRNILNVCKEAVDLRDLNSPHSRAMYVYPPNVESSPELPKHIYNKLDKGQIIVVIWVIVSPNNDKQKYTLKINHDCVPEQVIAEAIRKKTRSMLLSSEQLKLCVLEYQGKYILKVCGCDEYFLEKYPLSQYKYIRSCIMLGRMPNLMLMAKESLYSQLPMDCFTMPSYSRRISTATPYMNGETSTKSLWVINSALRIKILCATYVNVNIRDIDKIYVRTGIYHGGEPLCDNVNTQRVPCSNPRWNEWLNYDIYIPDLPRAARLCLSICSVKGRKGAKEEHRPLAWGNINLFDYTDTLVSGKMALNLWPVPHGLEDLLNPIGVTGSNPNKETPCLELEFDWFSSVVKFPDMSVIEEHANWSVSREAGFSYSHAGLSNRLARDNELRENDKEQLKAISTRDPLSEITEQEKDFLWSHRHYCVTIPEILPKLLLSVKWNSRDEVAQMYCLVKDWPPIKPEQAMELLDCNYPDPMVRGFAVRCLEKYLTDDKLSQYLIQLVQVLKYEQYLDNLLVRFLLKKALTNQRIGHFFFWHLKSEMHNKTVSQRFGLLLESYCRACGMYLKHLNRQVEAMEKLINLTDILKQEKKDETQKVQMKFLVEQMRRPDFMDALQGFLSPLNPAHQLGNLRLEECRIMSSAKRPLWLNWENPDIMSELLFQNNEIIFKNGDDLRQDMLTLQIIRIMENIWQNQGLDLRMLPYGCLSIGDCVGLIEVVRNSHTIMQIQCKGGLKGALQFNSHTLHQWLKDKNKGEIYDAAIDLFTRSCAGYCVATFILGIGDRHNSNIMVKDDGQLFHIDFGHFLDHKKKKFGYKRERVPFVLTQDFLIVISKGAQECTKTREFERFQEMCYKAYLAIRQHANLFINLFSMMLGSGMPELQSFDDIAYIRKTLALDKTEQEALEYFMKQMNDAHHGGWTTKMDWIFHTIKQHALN
Test: KINOMEscan competition binding
Conditions: compound 10.0 µM

{"STRUCTURE": "CCN(CCO)CCCOc1ccc2c(Nc3cc(CC(=O)Nc4cccc(F)c4)[nH]n3)ncnc2c1", "kinase still bound, per cent of control": "72%"}

Form field: reported kinase still bound, per cent of control of N#CCNC(=O)c1ccc(-c2ccnc(Nc3ccc(N4CCOCC4)cc3)n2)cc1
100%

Can you share its kinase still bound, per cent of control? I mean this compound: C[C@@H](Oc1cc(-n2cnc3ccc(CN4CCN(C)CC4)cc32)sc1C(N)=O)c1ccccc1C(F)(F)F
55%

Requested field: kinase still bound, per cent of control. Item: CNC(=O)Nc1ccc(-c2nc(N3CC4CCC(C3)O4)c3cnn(C4CCC5(CC4)OCCO5)c3n2)cc1
11%

Could you share which kinase still bound, per cent of control value was measured for CCN1CCN(Cc2ccc(NC(=O)c3ccc(C)c(/C=C/c4cnc5[nH]ccc5c4OC)c3)cc2C(F)(F)F)CC1 ?
100%

Which kinase still bound, per cent of control value is on record for CCC(=O)N1CCN(c2ccc(-n3c(=O)ccc4cnc5ccc(-c6cnc7ccccc7c6)cc5c43)cc2C(F)(F)F)CC1 ?
0.7%

Need kinase still bound, per cent of control, item CCN1CCN(C(=O)Cc2ccc(Nc3ncc(F)c(Nc4ccc(C(=O)Nc5ccccc5Cl)cc4)n3)cc2)CC1
57%

For the compound shown here, N#C/C(=C1/Nc2ccccc2S1)c1ccnc(NCCc2cccnc2)n1 , give the reported kinase still bound, per cent of control.
86%

Reported kinase still bound, per cent of control for OCCCNc1cc(-c2ccnc(Nc3cccc(Cl)c3)n2)ccn1 : what is it?
100%
